Collected shrunken log2 fold change values appear next to each entry.
System: Escherichia coli TOP10;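 further: peptides expressed intracellularly from a pBAD plasmid library in pooled LB shake-flask culture, induced with 0.3% L-arabinose, DNA abundance read by NGS, three biological replicates, DESeq2 with apeglm shrinkage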
experimental_protocol: shrunken log2 fold change of peptide-encoding DNA abundance (4.5 h post-induction vs induction); higher = less antimicrobial activity (less host growth inhibition)
particulars: time post-induction: 4.5 h; library: site-saturation at positions 5, 18, 19, 20
Lab note: record the figure alone, no unit after it.

Example entries and their recorded answers appear below.
Find the measured shrunken log2 fold change of `RRIRLRPPRLPRPRPRPINTPRP` and report it. -0.881

Find the measured shrunken log2 fold change of `RRIRLRPPRLPRPRPRPLPTPRP` and report it. 0.293

Find the measured shrunken log2 fold change of `RRIRSRPPRLPRPRPRPCASPRP` and report it. 0.121

Find the measured shrunken log2 fold change of `RRIRQRPPRLPRPRPRPLLCPRP` and report it. 0.126

Find the measured shrunken log2 fold change of `RRIRARPPRLPRPRPRPLVQPRP` and report it. 0.561

More entries:
Find the measured shrunken log2 fold change of `RRIRVRPPRLPRPRPRPSERPRP` and report it. -0.0442

Find the measured shrunken log2 fold change of `RRIRYRPPRLPRPRPRPQITPRP` and report it. -0.918

Find the measured shrunken log2 fold change of `RRIRFRPPRLPRPRPRPYLWPRP` and report it. -0.309
